Below is a list of entries, each paired with its recorded IC50 value.
biological target: CaMet2NHp (Candida albicans, UniProt Q5A948); construct: full length with N-terminal oligo-His tag (kept), ~45 kDa; E. coli Rosetta (DE3) pLysS; dimer only in model; test: inhibition, DTNB end-point assay of CoA formed, […] nm
Sequence (Q5A948 1-409): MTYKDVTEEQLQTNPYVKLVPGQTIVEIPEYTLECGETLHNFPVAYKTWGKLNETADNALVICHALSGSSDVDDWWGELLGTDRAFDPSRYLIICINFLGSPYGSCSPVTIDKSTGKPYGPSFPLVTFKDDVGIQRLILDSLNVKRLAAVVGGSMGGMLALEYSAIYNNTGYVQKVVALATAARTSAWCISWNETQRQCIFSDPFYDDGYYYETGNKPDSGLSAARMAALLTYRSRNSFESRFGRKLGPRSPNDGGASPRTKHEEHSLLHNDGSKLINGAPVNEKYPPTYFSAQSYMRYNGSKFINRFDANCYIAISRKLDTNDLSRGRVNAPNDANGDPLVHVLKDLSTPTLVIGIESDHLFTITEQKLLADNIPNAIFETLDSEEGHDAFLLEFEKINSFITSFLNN

| STRUCTURE SMILES STRING | IC50 |
| --- | --- |
| CC(C)(S)[C@@H](N)C(=O)O | ~2000 µM |
| CC(C)(S)[C@H](N)C(=O)O | ~2000 µM |
